The reported numbers originate from patent US20170081400A1.

Biological target: T1, human TL1A extracellular domain with N-terminal HIS and FLAG tag (human, UniProt O95150 72-251)
T1 construct: the whole entry is named
T1 sequence: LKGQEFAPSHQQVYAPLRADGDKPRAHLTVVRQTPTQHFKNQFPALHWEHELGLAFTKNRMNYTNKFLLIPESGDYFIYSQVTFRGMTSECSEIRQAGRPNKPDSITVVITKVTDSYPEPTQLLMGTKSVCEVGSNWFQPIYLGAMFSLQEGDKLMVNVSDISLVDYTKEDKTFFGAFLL
Test: SPR Run 4, purified Ab captured on Protein A, TL1A 5 ug/mL, timepoint 44
The entries below come with measured TL1A Binding Level (Early) values attached.
Enter your answer as a number in RU; do not include the unit.

Examples with their reported TL1A Binding Level (Early) follow.
{"BINDER": "320-357 (antibody, human IgG1, name in Kabat numbering, V domains shown, human IgG1, lambda) VH: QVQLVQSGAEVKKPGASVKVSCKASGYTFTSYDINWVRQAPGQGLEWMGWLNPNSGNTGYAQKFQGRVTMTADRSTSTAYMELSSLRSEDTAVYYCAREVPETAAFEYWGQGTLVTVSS VL: QSVLTQPPSVSGAPGQRVTISCTSSSSDIGAGLGVHWYQQLPGTAPKLLIEGYYNRPSGVPDRFSGSKSGTSASLTITGLLPEDEGDYYCQSYDGYLSALFGGGTKLTVLG", "REPORTED": 119}
{"BINDER": "320-366 (antibody, human IgG1, name in Kabat numbering, V domains shown, human IgG1, lambda) VH: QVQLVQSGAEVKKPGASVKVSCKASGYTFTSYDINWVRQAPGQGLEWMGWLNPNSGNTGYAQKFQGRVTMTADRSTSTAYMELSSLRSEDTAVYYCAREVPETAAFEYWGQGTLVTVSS VL: QSVLTQPPSVSGAPGQRVTISCTSSSSDIGAGLGVHWYQQLPGTAPKLLIEGYYNRPSGVPDRFSGSKSGTSASLTITGLLPEDEGDYYCQSYDGTLDALFGGGTKLTVLG", "REPORTED": 62}

Now consider a different binder.
stdin: GET /values?readout=TL1A Binding Level (Early)&item= 320-318 (antibody, human IgG1, name in Kabat numbering, V domains shown, human IgG1, lambda) VH: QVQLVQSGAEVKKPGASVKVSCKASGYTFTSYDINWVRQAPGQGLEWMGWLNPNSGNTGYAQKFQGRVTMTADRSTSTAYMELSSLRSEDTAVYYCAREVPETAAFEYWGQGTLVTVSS VL: QSVLTQPPSVSGAPGQRVTISCTSSSSDIGAGLGVHWYQQLPGTAPKLLIEGYYNRPSGVPDRFSGSKSGTSASLTITGLLPEDEGDYYCQAYDGTLSALFGGGTKLTVLG
stdout: 160
